Tested on: E. coli TESEC Alr+ wild-type control
Experiment summary: growth (OD600 after 10 h); higher = more growth (less inhibition)
Cond: compound 0.1 mM; raw OD600 reference: median of DMSO wells 0.241, cell-free background 0.041
Counter-ions that a name gives are not always drawn.

>  <Compound>
c1ccc(CC2=NCCN2)cc1 [Tolazoline hydrochloride]

>  <growth>
0.246

$$$$
>  <Compound>
CCCNC(C)C(=O)Nc1c(C)csc1C(=O)OC (stereo not given) [Articaine hydrochloride]

>  <growth>
0.249

$$$$
>  <Compound>
Cc1ccc(S(=O)(=O)NC(=O)NN2CC3CCCC3C2)cc1 (stereo not given) [Gliclazide]

>  <growth>
0.244

$$$$
>  <Compound>
NS(=O)(=O)c1cc(Cl)c(Cl)c(S(N)(=O)=O)c1 [Dichlorphenamide]

>  <growth>
0.25

$$$$
>  <Compound>
c1coc(CNc2ncnc3nc[nH]c23)c1

>  <growth>
0.252

$$$$
>  <Compound>
Clc1ccc(C(c2ccccc2Cl)C(Cl)Cl)cc1 (stereo not given)

>  <growth>
0.224

$$$$
>  <Compound>
CN(C)CCCC1(c2ccc(F)cc2)OCc2cc(C#N)ccc21 (stereo not given) [Citalopram Hydrobromide]

>  <growth>
0.207

$$$$
>  <Compound>
COc1ccccc1OCC(O)COC(N)=O (stereo not given)

>  <growth>
0.254

$$$$
>  <Compound>
CNCC(O)c1ccc(O)c(O)c1 (stereo not given) [Racepinephrine HCl]

>  <growth>
0.243

$$$$
>  <Compound>
C[C@](N)(Cc1ccc(O)c(O)c1)C(=O)O

>  <growth>
0.241

$$$$
